system: HCT-116; test: High-throughput calcein AM cytotoxicity assay, HCT-116; format: cell-based, human; conditions: HCT-116 cells; read-out: IC50
pIC50: −log10 of the molar value.
RECORDED ENDPOINT: pIC50

Here's what some known entries look like.
compound="CON(C1CCC2(C)C(CCC3C2CCC2(C)C(C4=CC(=O)OC4)CCC32O)C1)C1OC(CO)C(O)C(O)C1O [39α, L-taloside]" recorded_endpoint=pIC50 measurement="< 4.60"
compound="CON(C1CCC2(C)C(CCC3C2CCC2(C)C(C4=CC(=O)OC4)CCC32O)C1)C1OC(CO)C(OC2OC(CO)C(O)C(O)C2O)C(O)C1O (stereo not drawn) [36α, lactoside]" recorded_endpoint=pIC50 measurement="< 4.60"

Shift focus to the following entry.
Per the record, CON([C@@H]1CC[C@@]2(C)[C@H](CC[C@@H]3[C@@H]2CC[C@]2(C)[C@@H](C4=CC(=O)OC4)CC[C@]32O)C1)[C@@H]1O[C@H](CO)[C@@H](O)[C@H](O)[C@H]1O [4α, D-glucoside] has pIC50 of < 4.60

----------
test system: NCI/ADR-RES; test: cells; format: cell-based, human; details: NCI/ADR-RES cells; read-out: IC50, NCI/ADR-RES
RECORDED ENDPOINT: IC50

compound="C[C@]12CC[C@H](O[C@@H]3O[C@H](CO)[C@@H](O)[C@H](O)[C@H]3O)C[C@H]1CC[C@@H]1[C@@H]2CC[C@]2(C)[C@@H](C3=CC(=O)OC3)CC[C@]12O [43β, O-D-glucoside]" recorded_endpoint=IC50 measurement="0.19 µM"
compound="CON(C1CCC2(C)C(CCC3C2CCC2(C)C(C4=CC(=O)OC4)CCC32O)C1)C1OC(CO)C(O)C(O)C1O [20α, D-altroside]" recorded_endpoint=IC50 measurement="> 25 µM"
compound="CON([C@H]1CC[C@@]2(C)[C@H](CC[C@@H]3[C@@H]2CC[C@]2(C)[C@@H](C4=CC(=O)OC4)CC[C@]32O)C1)[C@@H]1OC[C@@H](O)[C@@H](O)[C@H]1O [6β, D-riboside]" recorded_endpoint=IC50 measurement="0.66 µM"

Field: next compound
# compound CON(C1CCC2(C)C(CCC3C2CCC2(C)C(C4=CC(=O)OC4)CCC32O)C1)C1OC(C(=O)O)C(O)C(O)C1O [38β, D-galacturonoside] ; its IC50 = 1.6 µM

----------
test system: HCT-116; test: High-throughput calcein AM cytotoxicity assay, HCT-116; type: cell-based, human; conditions: HCT-116 cells; read-out: IC50, HCT-116
pIC50 values by entry
Recall that pIC50 is obtained by taking minus log10 of the concentration measured in molar.

Worked examples, 3 compounds total:
compound="CON(C1CCC2(C)C(CCC3C2CCC2(C)C(C4=CC(=O)OC4)CCC32O)C1)C1OC(CO)C(O)C(O)C1O [39β, L-taloside]" study_target=HCT-116 recorded_endpoint=pIC50 measurement=5.64
compound="CON([C@H]1CC[C@@]2(C)[C@H](CC[C@@H]3[C@@H]2CC[C@]2(C)[C@@H](C4=CC(=O)OC4)CC[C@]32O)C1)[C@@H]1OC[C@@H](O)[C@H](O)[C@H]1O [24β, D-xyloside]" study_target=HCT-116 recorded_endpoint=pIC50 measurement=5.74
compound="CON([C@H]1CC[C@@]2(C)[C@H](CC[C@@H]3[C@@H]2CC[C@]2(C)[C@@H](C4=CC(=O)OC4)CC[C@]32O)C1)[C@@H]1OC[C@@H](O)[C@@H](O)[C@H]1O [6β, D-riboside]" study_target=HCT-116 recorded_endpoint=pIC50 measurement=5.89

Shifting focus to the compound that follows.
The measured pIC50 associated with CON([C@H]1CC[C@@]2(C)[C@H](CC[C@@H]3[C@@H]2CC[C@]2(C)[C@@H](C4=CC(=O)OC4)CC[C@]32O)C1)[C@H]1C[C@@H](O)[C@@H](O)[C@@H](CO)O1 [9β, 2-deoxy-D-galactoside] reads 5.00

----------
tested on: NCI/ADR-RES; experiment: cells; assay type: cell-based, human; details: NCI/ADR-RES cells; read-out: IC50, NCI/ADR-RES
RECORDED ENDPOINT: pIC50
pIC50 (log units): -log10 of the concentration in mol/L.

The examples below pair each entry with its known result.
molecule="CON([C@H]1CC[C@@]2(C)[C@H](CC[C@@H]3[C@@H]2CC[C@]2(C)[C@@H](C4=CC(=O)OC4)CC[C@]32O)C1)[C@@H]1O[C@H](CO)[C@@H](O)[C@@H](O)[C@@H]1O [20β, D-altroside]" measurement=6.05
molecule="CON([C@H]1CC[C@@]2(C)[C@H](CC[C@@H]3[C@@H]2CC[C@]2(C)[C@@H](C4=CC(=O)OC4)CC[C@]32O)C1)[C@@H]1O[C@H](CO)[C@@H](O)[C@H](O)[C@H]1O [4β, D-glucoside]" measurement=5.72

Pending molecule:
Recorded pIC50 (molecule CON([C@H]1CC[C@@]2(C)[C@H](CC[C@@H]3[C@@H]2CC[C@]2(C)[C@@H](C4=CC(=O)OC4)CC[C@]32O)C1)[C@@H]1C[C@@](C)(O)[C@@H](O)[C@H](C)O1 [30β, L-mycaroside] ): 6.46

----------
Reported IC50 values are given for each entry in this list.
system: HCT-116; test: High-throughput calcein AM cytotoxicity assay, HCT-116; format: cell-based, human; details: HCT-116 cells; read-out: IC50, HCT-116
Entry rule: numbers only, all in µM.

Answered cases to consult:
molecule="CON(C1CCC2(C)C(CCC3C2CCC2(C)C(C4=CC(=O)OC4)CCC32O)C1)C1OC(C(=O)O)C(O)C(O)C1O [38β, D-galacturonoside]" recorded_endpoint=IC50 unit_info=µM measurement=2.7
molecule="C[C@]12CC[C@H](O[C@@H]3O[C@H](CO)[C@@H](O)[C@H](O)[C@H]3O)C[C@H]1CC[C@@H]1[C@@H]2CC[C@]2(C)[C@@H](C3=CC(=O)OC3)CC[C@]12O [43β, O-D-glucoside]" recorded_endpoint=IC50 unit_info=µM measurement=0.6

Continue with the next molecule.
Summary: CON([C@H]1CC[C@@]2(C)[C@H](CC[C@@H]3[C@@H]2CC[C@]2(C)[C@@H](C4=CC(=O)OC4)CC[C@]32O)C1)[C@@H]1O[C@H](CO)[C@@H](O)[C@H](O)[C@H]1O [4β, D-glucoside] , HCT-116, IC50 = 3.8

----------
Catalogue of IC50 values
tested on: MCF7; experiment: High-throughput calcein AM cytotoxicity assay, MCF7; assay type: cell-based, human; conditions: MCF7 cells; read-out: IC50, MCF7

Example results:
compound="CON([C@H]1CC[C@@]2(C)[C@H](CC[C@@H]3[C@@H]2CC[C@]2(C)[C@@H](C4=CC(=O)OC4)CC[C@]32O)C1)[C@@H]1O[C@H](CO)[C@H](O)[C@@H](O)[C@H]1O [25β, D-guloside]" measurement="0.9 µM"
compound="CON(C1CCC2(C)C(CCC3C2CCC2(C)C(C4=CC(=O)OC4)CCC32O)C1)C1OC(CO)C(O)C(O)C1O [17α, L-alloside]" measurement="> 25 µM"

For record CON(C1CCC2(C)C(CCC3C2CCC2(C)C(C4=CC(=O)OC4)CCC32O)C1)C1OC(CO)C(O)C(O)C1O [18α, D-alloside] the listed IC50 is > 25 µM

----------
test system: HCT-116; test: High-throughput calcein AM cytotoxicity assay, HCT-116; assay type: cell-based, human; settings: HCT-116 cells; read-out: IC50, HCT-116
RECORDED ENDPOINT: pIC50
Worth noting: pIC50 values are minus log10 of concentrations stated in mol/L.

compound="CON([C@H]1CC[C@@]2(C)[C@H](CC[C@@H]3[C@@H]2CC[C@]2(C)[C@@H](C4=CC(=O)OC4)CC[C@]32O)C1)[C@H]1O[C@@H](CO)[C@@H](O)[C@H](O)[C@H]1O [28β, L-idoside]" study_target=HCT-116 measurement=5.49

Consider CON([C@H]1CC[C@@]2(C)[C@H](CC[C@@H]3[C@@H]2CC[C@]2(C)[C@@H](C4=CC(=O)OC4)CC[C@]32O)C1)[C@@H]1O[C@H](C)[C@H](O)[C@H](O)[C@H]1O [8β, D-fucoside] . Its measured pIC50 is 5.15

----------
system: MCF7; experiment: High-throughput calcein AM cytotoxicity assay, MCF7; assay type: cell-based, human; conditions: MCF7 cells; read-out: IC50, MCF7
Reported pIC50 values follow for various compounds
Bear in mind: pIC50 is minus log10 of a mol/L concentration; give just that figure.

Below, 3 compounds whose answers are already recorded.
compound="CON([C@H]1CC[C@@]2(C)[C@H](CC[C@@H]3[C@@H]2CC[C@]2(C)[C@@H](C4=CC(=O)OC4)CC[C@]32O)C1)[C@@H]1O[C@H](CO)[C@@H](O)[C@H](O)[C@H]1O [4β, D-glucoside]" study_target=MCF7 measurement=5.00
compound="CON([C@H]1CC[C@@]2(C)[C@H](CC[C@@H]3[C@@H]2CC[C@]2(C)[C@@H](C4=CC(=O)OC4)CC[C@]32O)C1)[C@H]1OC[C@H](O)[C@@H](O)[C@H]1O [14β, L-lyxoside]" study_target=MCF7 measurement=5.35
compound="CONC1CC[C@]2(C)C3CC[C@]4(C)[C@@H](C5=CC(=O)OC5)CC[C@]4(O)C3CC[C@@H]2C1 (stereo partly drawn) [3β, R—C(3)aglycon]" study_target=MCF7 measurement=5.74

Lab note: next compound to report on.
CON([C@H]1CC[C@@]2(C)[C@H](CC[C@@H]3[C@@H]2CC[C@]2(C)[C@@H](C4=CC(=O)OC4)CC[C@]32O)C1)[C@@H]1O[C@H](CO)[C@@H](O)[C@H](O)[C@H]1F [12β, 2-deoxy-2-fluoro-D-glucoside] on MCF7 gives pIC50 = 5.10
